test: Apparent permeability across apical to basolateral side in MDCK transfected with human MDR1 cells incubated for 1 hr by LC-MS analysis; settings: dog, mdck, 1 h
The threshold is inclusive: Papp of exactly 0.2 ×10⁻⁶ cm/s counts as true; values below receive false.

Answered cases to consult:
{"columns": ["testSmiles", "class"],
 "data": [
  ["COc1ccc(Cc2ccc(C3=N/C(=C\\NC4CCCCCC4)C4=C3CCCC4)[nH]2)cc1", "true"],
  ["CCC1=C(CC)/C(=C/NC23CC4CC(CC(C4)C2)C3)N=C1c1cc2ccccc2[nH]1", "true"],
  ["CCC1=C(CC)/C(=C/NC2CCCCC2)N=C1c1ccc(Cc2ccc(OC)cc2)[nH]1", "false"],
  ["CCc1ccc(C2=N/C(=C\\NC3CCCCCC3)C3=C2CCCC3)[nH]1", "true"]
]}

Switching to the query record.
stdin: Quick check: does CCC1=C(CC)/C(=C/NC2CCCCCC2)N=C1c1ccc(Cc2ccc(OC)cc2)[nH]1 have Papp greater than or equal to 0.2 ×10⁻⁶ cm/s?
stdout: false

FYI, the data here is from ChEMBL document CHEMBL6178021.
